Recorded values, source patent US11541050B2.

List of TLR7-wt_LEC values.
Target: human TLR7 (wild type sequence) (Homo sapiens, UniProt Q9NYK1)
Construct: expressed in transfected cells; host or cells: HEK293
Experiment: TLR7 cellular NFκB-luc reporter assay, wild type TLR7
Assay type: cell-based
Set-up: unit not given here
Settings: lowest effective concentration, wild type TLR7
// keep it numeric: no unit symbol after the value

Use these answered entries as a reference point.
* CCCC[C@@H](CO)Nc1nc(N)ncc1OCc1ccccn1 [Compound 243] | 0.343
* CCC[C@@H](CO)Nc1nc(N)ncc1OCc1cccc(C)n1 [Compound 202] | 0.164
* CCC[C@@H](CCO)Nc1nc(N)ncc1OCc1cn2ccccc2n1 [Compound 205] | 0.369

Q: Which TLR7-wt_LEC value belongs to CCC[C@@H](CCO)Nc1nc(N)ncc1OCc1cc(C)nn1C [Compound 264] ?
Ans: 0.215

Q: Which TLR7-wt_LEC value belongs to COc1cnc(N)nc1N[C@H](CCO)CC(C)C [Compound 261] ?
Ans: 10.790

* * *

Target: human TLR7 (wild type sequence) (Homo sapiens)
Construct: expressed in transfected cells; host or cells: HEK293
Test: TLR7 cellular NFκB-luc reporter assay, wild type TLR7
Type: cell-based
Design: unit not given here
Conditions: lowest effective concentration, wild type TLR7 (compounds 74 onward)
Label key: met means TLR 7 wt LEC under 0.6; not met means TLR 7 wt LEC of 0.6 or more.

Field: example entries. Status: answers known.
- CCCCNc1nc(N)ncc1OCc1c(C)noc1-c1ccccc1: not met
- C=CCNc1nc(N)ncc1OC: not met
- CCCC[C@@H](CCO)Nc1nc(N)ncc1OCc1ncc(C)c(OC)c1C: met
- CCCC[C@@H](CO)Nc1nc(N)ncc1OCc1cc(C)nn1C: not met
- CCCCNc1nc(N)ncc1OCc1c[nH]nn1: not met
- CCC(CO)Nc1nc(N)ncc1OC (stereo not shown): not met
- CCCCNc1nc(N)ncc1OCCOc1ccc(C(F)(F)F)cc1: not met
- CCCCNc1nc(N)ncc1OCc1nccc(OC)c1OC: met
- CCCCNc1nc(N)ncc1OCc1ccccn1: met

Let's switch to this molecule now.
Q: Strictly below 0.6: is that where TLR 7 wt LEC of CCCCNc1nc(N)ncc1OCc1cc(OC)ccn1 sits?
Ans: met

* * *

List of TLR 7 wt LEC values.
Target: human TLR7 (wild type sequence) (Homo sapiens, UniProt Q9NYK1)
Construct: expressed in transfected cells; host or cells: HEK293
Sequence (Q9NYK1 27-1049): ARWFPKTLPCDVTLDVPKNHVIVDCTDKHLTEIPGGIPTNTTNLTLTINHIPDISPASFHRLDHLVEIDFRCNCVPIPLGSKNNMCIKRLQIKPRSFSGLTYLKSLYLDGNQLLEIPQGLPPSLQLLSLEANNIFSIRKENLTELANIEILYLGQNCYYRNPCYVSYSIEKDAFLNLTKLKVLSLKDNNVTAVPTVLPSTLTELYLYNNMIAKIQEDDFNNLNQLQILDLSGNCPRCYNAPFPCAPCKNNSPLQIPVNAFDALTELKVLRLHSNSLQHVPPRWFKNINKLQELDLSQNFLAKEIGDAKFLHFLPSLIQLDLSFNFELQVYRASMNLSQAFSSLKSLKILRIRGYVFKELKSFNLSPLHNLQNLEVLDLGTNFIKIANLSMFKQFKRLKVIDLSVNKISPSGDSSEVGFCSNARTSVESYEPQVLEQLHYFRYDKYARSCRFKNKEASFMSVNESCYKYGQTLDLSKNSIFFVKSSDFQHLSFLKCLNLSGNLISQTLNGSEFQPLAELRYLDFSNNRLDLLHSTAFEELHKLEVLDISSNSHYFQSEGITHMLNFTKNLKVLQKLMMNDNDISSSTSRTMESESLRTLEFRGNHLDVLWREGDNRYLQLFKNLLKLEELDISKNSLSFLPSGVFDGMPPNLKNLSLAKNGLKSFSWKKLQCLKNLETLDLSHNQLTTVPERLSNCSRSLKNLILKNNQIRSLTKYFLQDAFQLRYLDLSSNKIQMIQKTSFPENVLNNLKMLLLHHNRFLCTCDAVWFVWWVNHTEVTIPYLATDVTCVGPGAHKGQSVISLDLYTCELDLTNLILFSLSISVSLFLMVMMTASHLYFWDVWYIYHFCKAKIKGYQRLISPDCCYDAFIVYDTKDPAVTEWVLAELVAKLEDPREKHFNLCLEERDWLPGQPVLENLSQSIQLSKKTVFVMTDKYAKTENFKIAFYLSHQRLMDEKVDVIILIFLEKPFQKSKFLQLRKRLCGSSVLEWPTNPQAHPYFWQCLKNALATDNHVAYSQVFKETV
Test: TLR7 cellular NFκB-luc reporter assay, wild type TLR7
Format: cell-based
Parameters: unit not given here
Details: lowest effective concentration, wild type TLR7 (compounds 74 onward)
// keep it numeric: no unit symbol after the value

Use these answered entries as a reference point.
* CCCCNc1nc(N)ncc1OCCOc1cccc(OC)c1 [Compound 127] | 1.030
* CCCCNc1nc(N)ncc1OCCCc1ccccc1Br [Compound 108] | 6.580

Please find the next molecule below.
Q: Which TLR 7 wt LEC value belongs to CCCC[C@@H](CO)Nc1nc(N)ncc1OCc1cccc(C(N)=O)n1 [Compound 80] ?
Ans: 0.560
